test: Distribution coefficient between 1-octanol and aqueous phosphate buffer, logD of the compound in pH 7.4 buffer; format: physicochemical; conditions: 1-octanol/aqueous phosphate buffer
Endpoint label: logD

Compound	Result
CCS(=O)(=O)c1ccc(CC(=O)Nc2cc(-c3cccc(Cl)c3)cs2)cc1	> 4.1
CCS(=O)(=O)c1ccc(C(NC(C)=O)C(=O)Nc2cc(-c3cc(C#N)cc(F)c3OC)cs2)cc1 (centres undefined)	3.3
CNS(=O)(=O)c1ccc(CC(=O)Nc2cc(-c3cc(C#N)cnc3OC)cs2)cc1	3.5

Qu. Item under review: CCS(=O)(=O)c1ccc(CC(=O)Nc2cc(-c3cc(Cl)cc(C#N)c3)cs2)cc1 . Reported logD?
Ans. > 4
